# Test system: 598228-144-R-J1-PDC complex spheroid viability
# test.protocol: Anticancer human tumor 598228-144-R-J1-PDC patient-derived serous endometrial adenocarcinoma cell line growth inhibition [GQUAD]
# assay.context: second compound 0.0316 µM; first compound 0.316 µM; hits give low values
Label Condition met when viability, T/C is strictly below 90%; otherwise label Condition not met.

is_below(viability, T/C, 90%) for Cn1ncnc1[C@H]1c2n[nH]c(=O)c3cc(F)cc(c23)N[C@@H]1c1ccc(F)cc1 + CN(C)c1ccc(Nc2c3ccc(NC(=O)CCN4CCCC4)cc3nc3cc(NC(=O)CCN4CCCC4)ccc23)cc1 ?
Condition met

Quick check: viability, T/C of COc1ncnc(C2CC2)c1-c1ncc2cnn(Cc3ccc(-c4nc(C(F)(F)F)cn4C(C)C)cc3)c2n1 + Cc1cnc(CNC(=O)c2c(=O)c3ccc(N4CCCN(C)CC4)nc3n3c2sc2ccccc23)cn1 under 90%?
Condition met

Hello, I'm reviewing records and need to know if viability, T/C of CC[C@@]1(O)C(=O)OCc2c1cc1n(c2=O)Cc2cc3c(CN(C)C)c(O)ccc3nc2-1 + CN(C)c1ccc(Nc2c3ccc(NC(=O)CCN4CCCC4)cc3nc3cc(NC(=O)CCN4CCCC4)ccc23)cc1 is below 90%. Could you check?
Condition met

Just wondering, is viability, T/C of CC1COCCN1c1cc(C2(S(C)(=N)=O)CC2)nc(-c2ccnc3[nH]ccc23)n1 (centres undefined) + CN(C)c1ccc(Nc2c3ccc(NC(=O)CCN4CCCC4)cc3nc3cc(NC(=O)CCN4CCCC4)ccc23)cc1 below 90%?
Condition not met

is_below(viability, T/C, 90%) for O=c1[nH]cc(F)c(=O)[nH]1 + CN(C)c1ccc(Nc2c3ccc(NC(=O)CCN4CCCC4)cc3nc3cc(NC(=O)CCN4CCCC4)ccc23)cc1 ?
Condition not met

In the record for CC1COCCN1c1cc(C2(S(C)(=N)=O)CC2)nc(-c2ccnc3[nH]ccc23)n1 (centres undefined) + Cc1cnc(CNC(=O)c2c(=O)c3ccc(N4CCCN(C)CC4)nc3n3c2sc2ccccc23)cn1 , is viability, T/C less than 90%?
Condition met

----------
# System: 598228-144-R-J1-PDC complex spheroid viability
# test.protocol: Anticancer human tumor 598228-144-R-J1-PDC cell line growth inhibition [GQUAD];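 further: spheroids exposed to the agents for one week before reading; percent of vehicle DMSO control viability so 100% = untreated growth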
# assay.context: second compound 0.1 µM; first compound 3.16 µM; hits give low values
Kindly supply the reported viability, T/C values for the records listed here.
// units = %; emit number, no label

What measured viability, T/C goes with CCCS(=O)(=O)Nc1ccc(F)c(C(=O)c2c[nH]c3ncc(-c4ccc(Cl)cc4)cc23)c1F + CN(C)c1ccc(Nc2c3ccc(NC(=O)CCN4CCCC4)cc3nc3cc(NC(=O)CCN4CCCC4)ccc23)cc1 ?
123

// returns reported viability, T/C for input CC1COCCN1c1cc(C2(S(C)(=N)=O)CC2)nc(-c2ccnc3[nH]ccc23)n1 (stereo not given) + Cc1cnc(CNC(=O)c2c(=O)c3ccc(N4CCCN(C)CC4)nc3n3c2sc2ccccc23)cn1
53.1

Name the recorded viability, T/C for O=c1[nH]cc(F)c(=O)[nH]1 + CN(C)c1ccc(Nc2c3ccc(NC(=O)CCN4CCCC4)cc3nc3cc(NC(=O)CCN4CCCC4)ccc23)cc1 .
96.8

Suppose we examine the compound O=C(c1cc(Cc2n[nH]c(=O)c3ccccc23)ccc1F)N1CCN(C(=O)C2CC2)CC1 + CN(C)c1ccc(Nc2c3ccc(NC(=O)CCN4CCCC4)cc3nc3cc(NC(=O)CCN4CCCC4)ccc23)cc1 ; what viability, T/C value has been reported?
87.2

Item O=C(NO)c1cnc(N2CCN(S(=O)(=O)c3ccc4ccccc4c3)CC2)nc1 + CN(C)c1ccc(Nc2c3ccc(NC(=O)CCN4CCCC4)cc3nc3cc(NC(=O)CCN4CCCC4)ccc23)cc1 has what recorded viability, T/C?
0.39

----------
# Test system: 598228-144-R-J1-PDC complex spheroid viability
# test.protocol: Anticancer human tumor 598228-144-R-J1-PDC cell line growth inhibition [GQUAD];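 further: spheroids exposed to the agents for one week before reading; percent of vehicle DMSO control viability so 100% = untreated growth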
# assay.context: second compound 0.0316 µM; first compound 0.0999 µM; hits give low values
Friendly reminder: viability, T/C below 50% is Y, at or above is N.

Report whether reported viability, T/C is lower than 50% (strictly) for CCc1c2c(nc3ccc(O)cc13)-c1cc3c(c(=O)n1C2)COC(=O)[C@]3(O)CC + Cc1cnc(CNC(=O)c2c(=O)c3ccc(N4CCCN(C)CC4)nc3n3c2sc2ccccc23)cn1
Y

viability, T/C strictly < 50% for this compound? Cc1[nH]c2ccccc2c1CCNCc1ccc(/C=C/C(=O)NO)cc1 + Cc1[nH]c2ccc(F)cc2c1-c1nc2c3cccnc3c3ncccc3c2[nH]1
Y

Lab note: confirm whether the reported viability, T/C for this compound is below 50%, equality not counting. compound: Cn1ncnc1[C@H]1c2n[nH]c(=O)c3cc(F)cc(c23)N[C@@H]1c1ccc(F)cc1 + Cc1cnc(CNC(=O)c2c(=O)c3ccc(N4CCCN(C)CC4)nc3n3c2sc2ccccc23)cn1
N

Is it true that viability, T/C reported for CC[C@@]1(O)C(=O)OCc2c1cc1n(c2=O)Cc2cc3c(CN(C)C)c(O)ccc3nc2-1 + Cc1cnc(CNC(=O)c2c(=O)c3ccc(N4CCCN(C)CC4)nc3n3c2sc2ccccc23)cn1 is less than 50%?
N

Quick check: does CC[C@@]1(O)C(=O)OCc2c1cc1n(c2=O)Cc2cc3c(CN(C)C)c(O)ccc3nc2-1 + Cc1[nH]c2ccc(F)cc2c1-c1nc2c3cccnc3c3ncccc3c2[nH]1 have viability, T/C under 50%?
N

Consider the compound CC[C@@]1(O)C(=O)OCc2c1cc1n(c2=O)Cc2cc3c(CN(C)C)c(O)ccc3nc2-1 + CN(C)c1ccc(Nc2c3ccc(NC(=O)CCN4CCCC4)cc3nc3cc(NC(=O)CCN4CCCC4)ccc23)cc1 . Is its viability, T/C strictly less than 50%?
N

----------
# Tested on: 598228-144-R-J1-PDC complex spheroid viability
# test.protocol: Anticancer human tumor 598228-144-R-J1-PDC cell line growth inhibition [GQUAD];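 further: spheroids exposed to the agents for one week before reading; percent of vehicle DMSO control viability so 100% = untreated growth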
# assay.context: second compound 0.0316 µM; first compound 0.316 µM; hits give low values
For each entry below, report its viability, T/C value.
The reply should contain only the number, in %.

Which viability, T/C is listed for CC1COCCN1c1cc(C2(S(C)(=N)=O)CC2)nc(-c2ccnc3[nH]ccc23)n1 (stereo not drawn) + Cc1[nH]c2ccc(F)cc2c1-c1nc2c3cccnc3c3ncccc3c2[nH]1 ?
89.2

Return reported viability, T/C; argument: C=CC(=O)N1CCN(c2nc(=O)n(-c3c(C)ccnc3C(C)C)c3nc(-c4c(O)cccc4F)c(F)cc23)C(C)C1 (stereo not drawn) + Cc1cnc(CNC(=O)c2c(=O)c3ccc(N4CCCN(C)CC4)nc3n3c2sc2ccccc23)cn1
91

Endpoint output: viability, T/C of COc1cc(C2c3cc4c(cc3C(OC3OC5COC(C)OC5C(O)C3O)C3COC(=O)C23)OCO4)cc(OC)c1O (stereo not drawn) + Cc1cnc(CNC(=O)c2c(=O)c3ccc(N4CCCN(C)CC4)nc3n3c2sc2ccccc23)cn1 . Value?
88.4
